assay: amyloid nucleation score (Sup35N fusion, yeast selection) (log enrichment); library NNK1; higher = more nucleation; inactive = no reads after selection;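 also: zero at mode of non-aggregating sequences after 7 days selection at 30°C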
parameterMeasured: amyloid nucleation score
Output: the number by itself.

* PIKEVPNTSRLLFSVCMKWH | 0.504
* CRRRMFLQVPRIYFEMRSYA | 0.492
* AKDFIGQSC | 0.688

IN: Suppose we examine the sequence RLFYTRSDSGGVRLVVLAVG ; what amyloid nucleation score value has been reported?
OUT: 0.003

IN: Suppose we examine the sequence SSLGIGFAPLISSFISC ; what amyloid nucleation score value has been reported?
OUT: -0.429

IN: Suppose we examine the sequence IFISIVLLF ; what amyloid nucleation score value has been reported?
OUT: 4.8

IN: Suppose we examine the sequence ALLCFLWCRMYGTFSTSCVL ; what amyloid nucleation score value has been reported?
OUT: 0.315
